assay: growth of efflux-deficient E. coli DRC39 – strain DRC39, OD650, 24 h, E. coli filamentation inducers, primary screen (AID 1178);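 further: growth measured as culture turbidity by optical density at 650 nm; test concentration not given here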; conditions: E. coli DRC39 acrAB, higher = more signal, called active from +8 up or from −8 down
assay.readout: z-score
Please give only the number in your answer, with no unit.

{"columns": ["molecule", "value.reported"],
 "data": [
  ["COc1cc2c(cc1O)C(c1ccc(CN3CCCC3)cc1)N(Cc1cc3c(cc1Br)OCO3)CC2 (stereo unspecified)", -1.36],
  ["CCCCN1CC=CC23O[C@@H]4/C=C\\CCC(C)OC(=O)C4[C@H]2C(=O)N(CCCO)[C@@H]3C1=O (stereo partly specified)", 0.0475],
  ["CC(c1ccccc1)C(O)C1C=CC2C(=O)N(C)C(=O)C2N1Nc1ccccc1 (stereo unspecified)", -1.12],
  ["CCCCCCCCCC(O)C1C=CC2C(=O)N(c3ccccc3)C(=O)C2N1Nc1cc(OC)c(OC)c(OC)c1 (stereo unspecified)", -1.57],
  ["CN1C2C=C(CCCO)C(C3C(=O)N(C(N)=O)C(=O)C32)C1C1CC1 (stereo unspecified)", -0.686],
  ["CC(C)[Si]1(C(C)C)OCc2cc(-c3ccc(-c4ccc(Cl)c(Cl)c4)o3)nc(-c3ccccc3)c21", -0.28],
  ["O=C1O[C@@H](c2ccccc2)[C@@H](c2ccccc2)N2[C@@H](c3ccc(OCCO)cc3)[C@]3(C(=O)Nc4ccc(C#CC5=CCCCC5)cc43)[C@@H](C(=O)NC[C@H](O)c3ccccc3)[C@H]12", -0.107],
  ["CCOC(=O)C[C@H]1[C@H](OC(=O)c2cc3ccccc3oc2=O)[C@@H](NC(=O)c2ccc3ccccc3n2)c2cc(OCCCO)ccc2N1C(=O)Cc1ccc(OC)cc1", 0.662]
]}

Qu. # lookup: z-score of O=C1NC(=O)C2C1C=CC(C(O)c1ccco1)N2Nc1ccc(Cl)cc1Cl (stereo unspecified)
Ans. -0.725

====

This listing pairs molecules with measured z-score.
test: JC-1 mitochondrial signal, unstimulated HepG2 cells – cell-based, JC-1 fluorescence, 24 h, 100 nL compound, profiling panel (AID 1167); details: HepG2 mitochondrial potential, higher = more signal; further: test concentration not given here
Please give only the number in your answer, with no unit.

Consider the worked cases shown below.
{"columns": ["molecule", "z-score"],
 "data": [
  ["CCCC[C@@H]1C[C@H]1[C@@H](NC(=O)c1cccs1)c1ccccc1C(F)(F)F", -2.45],
  ["CCOC(=O)C[C@H]1[C@H](OC(=O)c2ccc(C(=O)c3ccccc3)cc2)[C@@H](NC(=O)c2ccc(-c3ccccc3)cc2)c2cc(OCCCO)ccc2N1C(=O)Cc1ccc(OC)cc1", 1.57],
  ["C=CCC(OC(C)=O)[C@@H]1[C@@H](N(Cc2cccc3ccccc23)C(=O)Cc2ccc(OC)cc2)c2cc(OCCCO)ccc2N1C(=O)c1ccc(-c2ccccc2)cc1 (stereo not given in full)", 2.36],
  ["NC(=O)[C@H]1[C@@H]2C(=O)O[C@@H](c3ccccc3)[C@@H](c3ccccc3)N2[C@@H](c2ccc(OCCO)cc2)[C@]12C(=O)Nc1ccc(C#CCCO)cc12", -0.202]
]}

Qu. # lookup: z-score of CCCCCN1CC=CC23O[C@@H]4/C=C\CCC(C)OC(=O)C4[C@H]2C(=O)N(C(CO)C(C)C)[C@@H]3C1=O (stereo not given in full)
Ans. -0.224

Qu. # lookup: z-score of COc1ccc(C#Cc2ccc3c(c2)[C@]2(C(=O)N3)[C@H](C(=O)O)[C@H]3C(=O)O[C@H](c4ccccc4)[C@H](c4ccccc4)N3[C@@H]2c2ccc(O)cc2)cc1
Ans. -3.99

Qu. # lookup: z-score of C=CCNC(=O)[C@H]1[C@@H]2C(=O)O[C@@H](c3ccccc3)[C@@H](c3ccccc3)N2[C@@H](c2ccccc2OCCO)[C@]12C(=O)N(C(=O)OCCOC)c1ccc(C#CC3(O)CCCCCC3)cc12
Ans. -0.341

Qu. # lookup: z-score of CCOC(=O)[C@@H]1CCCCN1C(=O)C(=O)OC
Ans. -0.684

Qu. # lookup: z-score of [N-]=[N+]=Nc1ccccc1[C@H]1OC(c2ccc(OCCCO)cc2)=N[C@@]1(Cc1ccccc1)C(=O)NCCN1CCOCC1
Ans. 2.36

====

molecular target: Left-right determination factor 2 (Homo sapiens) (UniProt O00292); experiment: small molecules binding LEFTY2 protein – biochemical, small-molecule microarray, 635 nm fluorescence scan, primary screen (AID 1110); conditions: higher = more signal
Sequence (O00292 whole entry, looked up): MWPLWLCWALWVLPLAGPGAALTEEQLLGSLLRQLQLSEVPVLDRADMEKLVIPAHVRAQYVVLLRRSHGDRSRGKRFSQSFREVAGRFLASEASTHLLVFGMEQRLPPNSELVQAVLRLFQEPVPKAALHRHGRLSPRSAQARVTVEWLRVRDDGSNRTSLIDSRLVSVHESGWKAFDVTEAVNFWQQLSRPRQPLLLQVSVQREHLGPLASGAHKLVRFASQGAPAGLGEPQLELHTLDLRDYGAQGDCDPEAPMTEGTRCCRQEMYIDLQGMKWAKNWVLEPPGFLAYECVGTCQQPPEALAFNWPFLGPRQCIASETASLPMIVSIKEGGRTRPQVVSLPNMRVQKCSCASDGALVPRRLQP
This listing pairs molecules with measured composite z-score.
Please give only the number in your answer, with no unit.

{"columns": ["molecule", "composite z-score"],
 "data": [
  ["CC1CC/C=C\\[C@H]2OC34C=CCN(c5ccc6ccccc6c5)C(=O)[C@H]3N(CCCO)C(=O)[C@@H]4C2C(=O)O1 (some centres not stated)", -1.85]
]}

Qu. # lookup: composite z-score of COC(=O)[C@@]1(Cc2ccc(OC)cc2)[C@H]2c3cc(C(=O)N(C)C)n(Cc4ccc(C)o4)c3C[C@H]2CN1C(=O)c1ccccc1
Ans. -0.466

Qu. # lookup: composite z-score of CCOC(=O)C[C@H]1[C@H](OC(=O)Cc2ccc3c(c2)OCO3)[C@@H](NC(=O)c2ccc3ccccc3n2)c2cc(OCCCO)ccc2N1C(=O)c1ccccc1
Ans. -0.0499

Qu. # lookup: composite z-score of COc1ccc([Si](C)(C)[C@@H]2[C@@H](CC(=O)N3Cc4ccccc4C[C@H]3CO)O[C@]3(C(=O)N(Cc4ccc(N5C(=O)c6cccc7cccc5c67)cc4)c4ccccc43)[C@H]2C)cc1
Ans. 0.987

Qu. # lookup: composite z-score of COc1ccc([Si](C)(C)[C@@H]2[C@@H](CCO)O[C@]3(C(=O)N(Cc4ccccc4)c4ccc(N5C(=O)c6cccc7cccc5c67)cc43)[C@H]2C)cc1
Ans. -0.558

Qu. # lookup: composite z-score of COc1ccc([Si](C)(C)[C@H]2[C@H](CC(=O)N3CCC[C@H]3CO)O[C@@]3(C(=O)N(Cc4ccc(N5CCOC5=O)cc4)c4ccccc43)[C@@H]2C)cc1
Ans. 0.75

Qu. # lookup: composite z-score of CCCC1(C(=O)OC)C=C2C(=C(C)C(=O)C2C)CN1 (configuration not stated)
Ans. -0.569

====

experiment: S. pombe growth modifiers, basal conditions – strain 972, OD600, 24 h, no modulator, primary screen (AID 1090);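 further: basal condition with compound alone and no growth modifier present; test concentration not given here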; details: S. pombe 972 growth, higher = more signal, called active from +8 up or from −8 down
This listing pairs compounds with measured z-score.
Please give only the number in your answer, with no unit.

Consider the worked cases shown below.
{"columns": ["compound", "z-score"],
 "data": [
  ["COc1cc(NN2C(C(O)c3cc(OC)c(OC)c(OC)c3)C=CC3C(=O)N(C)C(=O)C32)cc(OC)c1OC (configuration not stated)", -0.724],
  ["O=C1N(CCS(=O)(=O)c2ccccc2)c2ccccc2[C@H]2OC(c3ccc(OCCCO)cc3)=N[C@@]12Cc1ccccc1", -0.0472],
  ["COCCOC(=O)N1C(=O)[C@@]2(c3cc(C#CCCO)ccc31)[C@H](C(=O)Nc1nc3ccccc3s1)[C@H]1C(=O)O[C@H](c3ccccc3)[C@H](c3ccccc3)N1[C@@H]2c1ccc(O)cc1", 0.663]
]}

Would you kindly look at the next entry?
Qu. # lookup: z-score of CC1=C2[C@@H](CCc3ccccc3)OB(O)C[C@@H]2[C@@H]2C(=O)N(Cc3ccccc3)C(=O)[C@@H]2C1
Ans. -2.47

====

This listing pairs compounds with measured z-score.
assay: growth of efflux-deficient E. coli DRC39 – strain DRC39, OD650, 24 h, E. coli filamentation inducers, primary screen (AID 1178);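 further: growth measured as culture turbidity by optical density at 650 nm; test concentration not given here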; settings: E. coli DRC39 acrAB, higher = more signal, called active from +8 up or from −8 down
Please give only the number in your answer, with no unit.

Consider the worked cases shown below.
{"columns": ["compound", "z-score"],
 "data": [
  ["CC1CC/C=C\\[C@H]2OC34C=CCN(C(C)C)C(=O)[C@H]3N(CCO)C(=O)[C@@H]4C2C(=O)O1 (stereo partly drawn)", 0.764],
  ["CC(C)c1ccc(NN2C(C(O)c3ccc(F)cc3)C=CC3C(=O)N(c4ccccc4)C(=O)C32)cc1 (stereo not drawn)", -0.159],
  ["CCOc1cc(C(O)C2C=CC3C(=O)NC(=O)C3N2Nc2ccc(Cl)cc2Cl)ccc1O (stereo not drawn)", -0.748],
  ["COc1cc2c(cc1O)C=[N+](Cc1sc3ccccc3c1Cl)CC2", 0.81],
  ["[N-]=[N+]=Nc1ccccc1C[C@@]1(C(=O)N2CCOCC2)N=C(c2ccc(OCCCO)cc2)O[C@@H]1c1ccccc1", 0.37]
]}

Qu. # lookup: z-score of O=C(c1ccccc1)N1C(=O)[C@]2(Cc3ccccc31)N=C(c1ccc(OCCCO)cc1)O[C@@H]2c1ccccc1
Ans. -0.18

Qu. # lookup: z-score of CCCC#C[Si](O[C@H](CC)c1cn([C@H](C)c2ccccc2)nn1)(C(C)C)C(C)C
Ans. 1.4

Qu. # lookup: z-score of NC(=O)NCC#Cc1ccc2c(c1)[C@]1(C(=O)N2)[C@H](c2ccccc2OCCO)N2[C@H](c3ccccc3)[C@H](c3ccccc3)OC(=O)[C@H]2[C@@H]1C(=O)O
Ans. 0.614
